All values here come from patent US10301294B2.

System: replicating M. tuberculosis H37Rv
Procedure text: microbe, parasite or virus in culture
Type: cell-based
Run parameters: Mycobacterium tuberculosis, H37RV, None = inhibition did not reach 90%, read-out: Against Replicating Mtb IC90 (uM, GFP)
Lab note: anything with IC90 below 60 µM is marked satisfied; values at 60 µM or higher are marked not satisfied.

Example cases with answers are listed next.
[[record]]
compound = "Brc1cccc(-c2nnc(SCc3ccccn3)o2)c1 [drawing 217]"
label = "not satisfied"

[[record]]
compound = "O=S(=O)(Cc1ccccc1)c1nnc(-c2ccccc2)o1 [drawing 214]"
label = "not satisfied"

[[record]]
compound = "[O-][n+]1ccccc1CSc1nnc(-c2ccccc2)o1 [drawing 194]"
label = "not satisfied"

[[record]]
compound = "COCC[S+]([O-])c1nnc(-c2ccc(Cl)cc2)o1 (centres unmarked) [drawing 196]"
label = "satisfied"

[[record]]
compound = "COC(=O)c1ccc(C[S+]([O-])c2nnc(-c3ccc(Cl)cc3)o2)nc1 (centres unmarked)"
label = "not satisfied"


Query: For this compound, is IC90 lower than 60 µM? COc1cccc(-c2nnc(SCc3ccccn3)o2)c1 [drawing 227]
Response: not satisfied

Query: For this compound, is IC90 lower than 60 µM? c1ccc(-c2nnc(SCc3ccccn3)o2)cc1 [drawing 177]
Response: not satisfied

Query: For this compound, is IC90 lower than 60 µM? COC(=O)CCCOc1ccc(CSc2nnc(-c3ccc(Cl)cc3)o2)nc1 [drawing 233]
Response: satisfied

Query: For this compound, is IC90 lower than 60 µM? "C#CCCCOc1ccc(CSc2nnc(-c3ccc(F)cc3)o2)nc1"
Response: satisfied

* * *

System: replicating M. tuberculosis H37Rv
Procedure text: microbe, parasite or virus in culture
Format: cell-based
Run parameters: Mycobacterium tuberculosis, H37RV, None = inhibition did not reach 90%, read-out: Against Replicating Mtb IC90 (uM, GFP)
Field: IC90. Provide a value for each of the molecules that follow.
Give bare numbers, in µM.

[[record]]
molecule = "COCCSc1nnc(-c2ccccc2)o1 [drawing 175]"
reading = 125

[[record]]
molecule = "[N-]=[N+]=NCCOCCNC(=O)CCCn1cc(C[S+]([O-])c2nnc(-c3ccc(F)cc3)o2)nn1 (centres unmarked)"
reading = 500

[[record]]
molecule = "Oc1ccc(-c2nnc(SCc3ccccn3)o2)cc1"
reading = 125

[[record]]
molecule = "Clc1ccc(-c2nnc(OCc3ccccn3)o2)cc1"
reading = 250

[[record]]
molecule = "COC(=O)CCCOc1ccc(CSc2nnc(-c3ccc(F)cc3)o2)nc1"
reading = 125

[[record]]
molecule = "COCCS(=O)(=O)c1nnc(-c2ccc(C)cc2)o1"
reading = 31

[[record]]
molecule = "Cc1ccc(-c2nnc([S+]([O-])Cc3cccc[n+]3[O-])o2)cc1 (centres unmarked)"
reading = 125

[[record]]
molecule = "[O-][S+](Cc1ccccn1)c1nnc(-c2ccc(F)cc2)o1 (centres unmarked)"
reading = 31


Query: Can you share its IC90? I mean this molecule: [N-]=[N+]=NCCOCCNC(=O)CCCOc1ccc(C[S+]([O-])c2nnc(-c3ccc(F)cc3)o2)nc1 (centres unmarked)
Response: 125

* * *

Tested on: carbon-starved M. tuberculosis H37Rv
Procedure text: Non-replicating IC90 determination by luciferase (carbon-starved cells)
Type: cell-based
Run parameters: Mycobacterium tuberculosis, H37RV, 120 h; luciferase; None = inhibition did not reach 99%; read-out: Against carbon starved non-replicating Mtb IC99 (uM, luciferase)
Please mark Condition met if the recorded IC99 is equal to or greater than 30 µM, and Condition not met if it falls below.

[[record]]
compound = "C#CCOc1ccc(-c2nnc([S+]([O-])Cc3ccccn3)o2)cc1 (stereo not shown)"
label = "Condition met"


Query: hey, is IC99 for this one >= 30 µM? "C#CCCCOc1cccc(-c2nnc(SCc3ccccn3)o2)c1"
Response: Condition not met

Query: hey, is IC99 for this one >= 30 µM? Fc1ccc(-c2nnc(SCc3ccccn3)o2)cc1 [drawing 215]
Response: Condition met

Query: hey, is IC99 for this one >= 30 µM? [N-]=[N+]=NCCCOc1ccc(C[S+]([O-])c2nnc(-c3ccc(F)cc3)o2)nc1 (stereo not shown)
Response: Condition not met

Query: hey, is IC99 for this one >= 30 µM? COC(=O)c1ccc(C[S+]([O-])c2nnc(-c3ccc(Cl)cc3)o2)nc1 (stereo not shown)
Response: Condition not met

Query: hey, is IC99 for this one >= 30 µM? O=S(=O)(Cc1ccccc1)c1nnc(-c2ccccc2)o1 [drawing 214]
Response: Condition not met

Query: hey, is IC99 for this one >= 30 µM? "Cc1cccc(CSc2nnc(-c3ccc(Cl)cc3)o2)n1"
Response: Condition met

* * *

Tested on: carbon-starved M. tuberculosis H37Rv
Procedure text: Non-replicating IC90 determination by luciferase (carbon-starved cells)
Assay type: cell-based
Run parameters: Mycobacterium tuberculosis, H37RV, 120 h; luciferase; None = inhibition did not reach 99%; read-out: Against carbon starved non-replicating Mtb IC99 (uM, luciferase)
Metric name: IC99
Quote the value and follow it with the unit of measurement.

# count of solved cases: 2
[[record]]
molecule = "c1ccc(-c2nnc(SCc3ccccn3)o2)cc1 [drawing 177]"
reading = "31 µM"

[[record]]
molecule = "C#CCCCOc1ccc(C[S+]([O-])c2nnc(-c3ccc(F)cc3)o2)nc1 (stereo not drawn)"
reading = "31 µM"


Give one value of IC99 per listed molecule.
1. CCOC(=O)CSc1nnc(-c2ccccc2)o1
2. Fc1cccc(-c2nnc(SCc3ccccn3)o2)c1 [drawing 216]
3. COC(=O)CCCOc1ccc(CSc2nnc(-c3ccc(Cl)cc3)o2)nc1 [drawing 233]
4. [N-]=[N+]=NCCOCCNC(=O)CCCOc1ccc(C[S+]([O-])c2nnc(-c3ccc(Cl)cc3)o2)nc1 (stereo not drawn) [drawing 240]
5. Clc1ccc(-c2nnc(SCc3ccccn3)o2)cc1
6. C#CCCCOc1cc(-c2nnc(SCc3ccccn3)o2)ccc1F
7. Brc1ccc(-c2nnc(SCc3ccccn3)o2)cc1 [drawing 212]

Response:
["250 µM", "16 µM", "16 µM", "16 µM", "16 µM", "64 µM", "8 µM"]

Give one value of IC99 per listed molecule.
1. COc1cccc(-c2nnc(SCc3ccccn3)o2)c1 [drawing 227]
2. Brc1cccc(-c2nnc(SCc3ccccn3)o2)c1 [drawing 217]
3. CCCCCCCCCCCCSc1nnc(-c2ccccc2)o1
4. COc1ccccc1-c1nnc(SCc2ccccn2)o1
5. COCC[S+]([O-])c1nnc(-c2ccc(Cl)cc2)o1 (stereo not drawn) [drawing 196]
6. [O-][S+](Cc1ccccc1)c1nnc(-c2ccccc2)o1 (stereo not drawn) [drawing 213]
7. c1ccc(-c2nnc(SCC3CC3)o2)cc1
8. COCCSc1nnc(-c2ccncc2)o1

Response:
16 µM
31 µM
62 µM
125 µM
31 µM
4 µM
31 µM
500 µM

Give one value of IC99 per listed molecule.
1. C#CCSc1nnc(-c2ccc(Cl)cc2)o1
2. Fc1ccc(CCSc2nnc(-c3ccccc3)o2)cc1
3. OCCn1cc(CSc2nnc(-c3ccc(Cl)cc3)o2)nn1

Response:
["16 µM", "250 µM", "31 µM"]

Query: Can you share its IC99? I mean this molecule: [N-]=[N+]=NCCOCCNC(=O)CCCOc1ccc(CSc2nnc(-c3ccc(Cl)cc3)o2)nc1 [drawing 237]
Response: 62 µM

* * *

Field: IC50. Provide a value for each of the compounds that follow.
Procedure text: Cytotoxicity against HeLa
Type: cell-based
Run parameters: human, HeLa cells, 26.0 uM highest concentration measured

[[record]]
compound = "Cc1ccc(CSc2nnc(-c3ccccc3)o2)cc1"
reading = "> 26 µM"

[[record]]
compound = "FC(F)(F)c1ccc(-c2nnc(SCc3ccccc3)o2)cc1"
reading = "> 26 µM"

[[record]]
compound = "Fc1cccc(CSc2nnc(-c3ccccc3)o2)c1"
reading = "> 26 µM"

[[record]]
compound = "Fc1ccc(CSc2nnc(-c3ccccc3)o2)cc1 [drawing 136]"
reading = "> 26 µM"

[[record]]
compound = "FC(F)(F)c1ccccc1-c1nnc(SCc2ccccc2)o1"
reading = "> 26 µM"

[[record]]
compound = "c1ccc(CSc2nnc(Cc3ccccc3)o2)cc1"
reading = "> 26 µM"

[[record]]
compound = "COCCSc1nnc(-c2ccccc2)o1 [drawing 148]"
reading = "> 26 µM"

[[record]]
compound = "N#Cc1ccccc1CSc1nnc(-c2ccccc2)o1"
reading = "> 26 µM"


Give one value of IC50 per listed compound.
1. Clc1ccc(CSc2nnc(-c3ccccc3)o2)cc1
2. c1ccc(-c2nnc(SCCN3CCOCC3)o2)cc1
3. c1ccc(-c2nnc(SCc3cscn3)o2)cc1
4. COc1ccccc1-c1nnc(SCc2ccccc2)o1
5. Clc1ccc(-c2nnc(SCc3cn(Cc4ccccc4)nn3)o2)cc1 [drawing 156]
6. FC(F)(F)Oc1ccc(-c2nnc(SCc3ccccc3)o2)cc1

Response:
1. > 26 µM
2. > 26 µM
3. > 26 µM
4. > 26 µM
5. > 26 µM
6. > 26 µM

Give one value of IC50 per listed compound.
1. c1ccc(-c2ccc(CSc3nnc(-c4ccccc4)o3)cc2)cc1
2. c1ccc(CSc2nnc(-c3ccccc3)s2)cc1
3. c1ccc(-c2nnc(SCc3ccccn3)o2)cc1 [drawing 142]
4. c1ccc(CSc2ncc(-c3ccccc3)o2)cc1

Response:
> 26 µM
> 26 µM
> 26 µM
> 26 µM

Give one value of IC50 per listed compound.
1. c1ccc(CSc2nnc(-c3ccccn3)o2)cc1
2. Clc1cccc(CSc2nnc(-c3ccccc3)o2)c1
3. CN(Cc1ccccc1)c1nnc(-c2ccccc2)o1
4. c1ccc(-n2cc(CSc3nnc(C4CCC4)o3)nn2)cc1
5. N#Cc1cccc(CSc2nnc(-c3ccccc3)o2)c1
6. c1ccc(CCc2nnc(-c3ccccc3)o2)cc1
7. FC(F)(F)Oc1cccc(CSc2nnc(-c3ccccc3)o2)c1

Response:
1. > 26 µM
2. > 26 µM
3. > 26 µM
4. > 26 µM
5. > 26 µM
6. > 26 µM
7. > 26 µM

Query: Can you share its IC50? I mean this compound: "FC(F)(F)c1ccc(CSc2nnc(-c3ccccc3)o2)cc1"
Response: > 26 µM
